Header: pIC50 / Protease (Human immunodeficiency virus 1) / multiple publications
On this scale, pIC50 is minus log10 of a concentration expressed in M (mol/L).

// solved cases for pIC50 follow
CC(C)c1nc(CN(C)C(=O)N[C@H](C(=O)N[C@H](CCN(Cc2ccccc2)NC(=O)OCc2cncs2)Cc2ccccc2)C(C)C)cs1
7.52
CC[C@H](C)[C@H](NC(=O)[C@@H](N)CO)C(=O)N[C@@H](C)C(=O)N[C@@H](CCC(N)=O)C(=O)NC12NC(=O)C3(O)C4C5CC(C6C5C3C61)C42 (mixture of isomers)
5.30

# next compound below
query: What is its pIC50 for Protease (Human immunodeficiency virus 1)? Entry: COc1ncnc2c1ncn2CC(=O)N[C@@H](Cc1ccccc1)[C@H](O)CN(CC(C)C)S(=O)(=O)c1ccc([N+](=O)[O-])cc1
result: 5.59

###

Header: IC50 / Protease (Human immunodeficiency virus 1) / multiple publications
Output rule met for records whose IC50 is lower than 30 µM, rule not met for records at or above 30 µM.

The following compounds have reported results that may help.
COC(=O)[C@H](NC(=O)[C@]12CCC(C)(C)C[C@@H]1C1=CC[C@@H]3[C@@]4(C)CC[C@H](O)C(C)(C)[C@@H]4CC[C@@]3(C)[C@]1(C)CC2)C(C)C
rule not met
COc1ccc(S(=O)(=O)N(CC(C)C)C[C@@H](O)[C@H](Cc2ccccc2)NC(=O)Cn2c(C)nc3cncnc32)cc1
rule met
CC1(C)CC[C@]2(C(=O)NCCCC(=O)O)CC[C@]3(C)C(=CC[C@@H]4[C@@]5(C)CC[C@H](OC(=O)c6ccccc6)C(C)(C)[C@@H]5CC[C@]43C)[C@@H]2C1
rule not met
CC(C)CN(C[C@@H](O)[C@H](Cc1ccccc1)NC(=O)Cn1cnc2c(Cl)nc(N)nc21)S(=O)(=O)c1ccc([N+](=O)[O-])cc1
rule met
Cc1cn(CC(=O)N[C@@H](Cc2ccccc2)[C@H](O)CN(CC(C)C)S(=O)(=O)c2ccc([N+](=O)[O-])cc2)c(=O)nc1N
rule met

query: Consider COC(=O)N[C@H](C(=O)Nc1ccccc1CC[C@@H]1CN[C@H](COC(=O)NCC(F)(F)F)CO1)C(c1ccccc1)c1ccccc1 . Does its IC50 lie strictly below 30 µM?
result: rule met

query: Consider CC[C@@H](C)[C@H](NC(=O)[C@H](CSCCOCCOCCSC[C@H](NC(=O)CCCCC1CCCCC1)C(=O)N[C@@H](Cc1ccccc1)C(=O)O)NC(=O)CCCCC1CCCCC1)C(=O)N[C@@H](Cc1ccccc1)C(N)=O . Does its IC50 lie strictly below 30 µM?
result: rule not met

query: Consider CCCCCCCCCCCC(=O)O[C@H]1CC[C@]2(C)[C@H]3CC=C4[C@@H]5CC(C)(C)CC[C@]5(C(=O)NCCCCCC(=O)O)CC[C@@]4(C)[C@]3(C)CC[C@H]2C1(C)C . Does its IC50 lie strictly below 30 µM?
result: rule not met

query: Consider CC(C)=CCC[C@H](C(=O)O)[C@@H]1CC[C@]2(C)C3=CC[C@H]4C(C)(C)C(=O)CC[C@]4(C)[C@H]3CC[C@@]12C . Does its IC50 lie strictly below 30 µM?
result: rule not met

query: Consider CC(C)[C@H](NC(C)(C)C)C(=O)NC(=O)[C@@H]1CCC[N+]12C([O-])[C@H](Cc1ccccc1)NC(=O)N2Cc1ccccc1 (some centres not stated) . Does its IC50 lie strictly below 30 µM?
result: rule not met
